Target: the molecule itself
Assay: SEC peak area ratio; full-length heavy chain, light chain and VHH-Fc coexpressed in Expi293F, affinity purified
Threshold check on Homo Fc fragment (%): strictly below 30% is criterion met; on or above 30% is criterion not met.

Observe how each entry below is paired with its result.
protein	class-assignment
VHH-Fc with K392D/D399K/K409D (SEQ ID NO: 588) (Fc fusion) EVQLVESGGGLVQPGGSLRLSCAASGSISSVDVMSWYRQAPGKQRELVAFITDRGRTNYKVSVKGRFTISRDNSKNMVYLQMNSLKPEDTADYLCRAESRTSWSSPSPLDVWGRGTQVTVSSDKTHTCPPCPAPELLGGPSVFLFPPKPKDTLMISRTPEVTCVVVDVSHEDPEVKFNWYVDGVEVHNAKTKPREEQYNSTYRVVSVLTVLHQDWLNGKEYKCKVSNKALPAPIEKTISKAKGQPREPQVYTLPPSREEMTKNQVSLTCLVKGFYPSDIAVEWESNGQPENNYDTTPPVLKSDGSFFLYSDLTVDKSRWQQGNVFSCSVMHEALHNHYTQKSLSLSP	criterion met
VHH-Fc with E345R/Q347R/K360D/T366V/D399M/Y407A/K409V (SEQ ID NO: 590) (Fc fusion, also called VHH-Fc of Sample No. 309) EVQLVESGGGLVQPGGSLRLSCAASGSISSVDVMSWYRQAPGKQRELVAFITDRGRTNYKVSVKGRFTISRDNSKNMVYLQMNSLKPEDTADYLCRAESRTSWSSPSPLDVWGRGTQVTVSSDKTHTCPPCPAPELLGGPSVFLFPPKPKDTLMISRTPEVTCVVVDVSHEDPEVKFNWYVDGVEVHNAKTKPREEQYNSTYRVVSVLTVLHQDWLNGKEYKCKVSNKALPAPIEKTISKAKGQPRRPRVYTLPPSREEMTDNQVSLVCLVKGFYPSDIAVEWESNGQPENNYKTTPPVLMSDGSFFLASVLTVDKSRWQQGNVFSCSVMHEALHNHYTQKSLSLSP	criterion not met
VHH-Fc with E345R/K360E/D399M/Y407A/K409V (SEQ ID NO: 592) (Fc fusion) EVQLVESGGGLVQPGGSLRLSCAASGSISSVDVMSWYRQAPGKQRELVAFITDRGRTNYKVSVKGRFTISRDNSKNMVYLQMNSLKPEDTADYLCRAESRTSWSSPSPLDVWGRGTQVTVSSDKTHTCPPCPAPELLGGPSVFLFPPKPKDTLMISRTPEVTCVVVDVSHEDPEVKFNWYVDGVEVHNAKTKPREEQYNSTYRVVSVLTVLHQDWLNGKEYKCKVSNKALPAPIEKTISKAKGQPRRPQVYTLPPSREEMTENQVSLTCLVKGFYPSDIAVEWESNGQPENNYKTTPPVLMSDGSFFLASVLTVDKSRWQQGNVFSCSVMHEALHNHYTQKSLSLSP	criterion not met

Lab note: confirm whether the reported Homo Fc fragment (%) for this protein is below 30%, equality not counting. protein: VHH-Fc with E356K/K392D/D399K/K439E (SEQ ID NO: 587) (Fc fusion) EVQLVESGGGLVQPGGSLRLSCAASGSISSVDVMSWYRQAPGKQRELVAFITDRGRTNYKVSVKGRFTISRDNSKNMVYLQMNSLKPEDTADYLCRAESRTSWSSPSPLDVWGRGTQVTVSSDKTHTCPPCPAPELLGGPSVFLFPPKPKDTLMISRTPEVTCVVVDVSHEDPEVKFNWYVDGVEVHNAKTKPREEQYNSTYRVVSVLTVLHQDWLNGKEYKCKVSNKALPAPIEKTISKAKGQPREPQVYTLPPSRKEMTKNQVSLTCLVKGFYPSDIAVEWESNGQPENNYDTTPPVLKSDGSFFLYSKLTVDKSRWQQGNVFSCSVMHEALHNHYTQESLSLSP
criterion not met

Also need VHH-Fc with Y349C/E357C/K392D/D399K (SEQ ID NO: 589) (Fc fusion, also called VHH-Fc of Sample No. 308) EVQLVESGGGLVQPGGSLRLSCAASGSISSVDVMSWYRQAPGKQRELVAFITDRGRTNYKVSVKGRFTISRDNSKNMVYLQMNSLKPEDTADYLCRAESRTSWSSPSPLDVWGRGTQVTVSSDKTHTCPPCPAPELLGGPSVFLFPPKPKDTLMISRTPEVTCVVVDVSHEDPEVKFNWYVDGVEVHNAKTKPREEQYNSTYRVVSVLTVLHQDWLNGKEYKCKVSNKALPAPIEKTISKAKGQPREPQVCTLPPSRECMTKNQVSLTCLVKGFYPSDIAVEWESNGQPENNYDTTPPVLKSDGSFFLYSKLTVDKSRWQQGNVFSCSVMHEALHNHYTQKSLSLSP , thanks.
criterion met

Also need VHH-Fc with K392L/T394W/F405A/Y407V (SEQ ID NO: 586) (Fc fusion) EVQLVESGGGLVQPGGSLRLSCAASGSISSVDVMSWYRQAPGKQRELVAFITDRGRTNYKVSVKGRFTISRDNSKNMVYLQMNSLKPEDTADYLCRAESRTSWSSPSPLDVWGRGTQVTVSSDKTHTCPPCPAPELLGGPSVFLFPPKPKDTLMISRTPEVTCVVVDVSHEDPEVKFNWYVDGVEVHNAKTKPREEQYNSTYRVVSVLTVLHQDWLNGKEYKCKVSNKALPAPIEKTISKAKGQPREPQVYTLPPSREEMTKNQVSLTCLVKGFYPSDIAVEWESNGQPENNYLTWPPVLDSDGSFALVSKLTVDKSRWQQGNVFSCSVMHEALHNHYTQKSLSLSP , thanks.
criterion not met
